Quick reference for IC50 among some compounds
target: recombinant SARS-CoV-2 Main protease (Mpro) (Severe acute respiratory syndrome coronavirus 2 (2019-nCoV) (SARS-CoV-2), UniProt P0DTD1); assay: Cov Mpro Biochemical IC50 Assay; conditions: recombinant SARS-CoV-2 Mpro 7.5 nM, fluorogenic peptide substrate 40 μM; read-out: MPro IC50
All answers are understood in µM, so give the number only.

Incoming: Which IC50 value is on record for COc1ccc(C#N)c(-c2cc3[nH]c(=O)n(-c4cncc5ccc(F)cc45)c(=O)c3s2)c1 ?
Outgoing: 0.00501

Incoming: For O=c1[nH]c2cc(-c3ccccc3Cl)sc2c(=O)n1-c1cncc2ccc(N3CC(O)(C(F)(F)F)C3)cc12 then?
Outgoing: 0.0213

Incoming: Try Cn1nnc2cncc(-n3c(=O)c4sc(-c5ccc(F)cc5Cl)cc4n(CCC#N)c3=O)c21 (single isomer, unassigned) [Example 1028] next.
Outgoing: 0.0179

Then there is this compound:
Incoming: What does the data say about its IC50? Entry: COc1ccc(C#N)c(-c2cc3[nH]c(=O)n(-c4cncc5ccccc45)c(=O)c3s2)c1 (single isomer, unassigned) [Example 555]
Outgoing: 0.0215
